Study target: p38a/PRAK (Homo sapiens (Human))
Assay notes: biochemical
Particulars: 10-point 1:3 dilution, top dose 300 μM; 10 μM ATP, 2 h incubation; read-out: p38a/PRAK Enzyme pIC50 (converted)
Known IC50 of a selection of molecules
Answer in µM, number only, no unit symbol.

Example entries begin here.
[[record]]
molecule = "Cc1cnc(-n2cccc(C3CCOCC3)c2=O)cc1-n1c(C)cc(OCc2ncc(F)cc2F)c(Cl)c1=O (single isomer, unassigned) [Example 8A]"
recorded_endpoint = "IC50"
unit_symbol = "µM"
number = 2.51

[[record]]
molecule = "CCOC(=O)C(C)(C)n1nc(-c2cc(-n3c(C)cc(OCc4ncc(F)cc4F)c(Cl)c3=O)c(C)cn2)ccc1=O (atropisomer, axis not shown)"
recorded_endpoint = "IC50"
unit_symbol = "µM"
number = 6.31


We now examine a further molecule.
I would be grateful if you could share the reported IC50 for [2H]C([2H])(Oc1cc(C)n(-c2cc(-n3ccnc(C(C)(C)O)c3=O)ncc2C)c(=O)c1Cl)c1ncc(F)cc1F (single isomer, unassigned) [Example 19A] . 1.58

----------
Known log10 IC50 of a selection of compounds
Study target: p38a/PRAK (Homo sapiens (Human), UniProt Q16539)
Assay notes: biochemical
Particulars: 10-point 1:3 dilution, top dose 300 μM; 10 μM ATP, 2 h incubation; read-out: p38a/PRAK Enzyme pIC50 (converted)
Record value = log10 of IC50 given in µM.

I would be grateful if you could share the reported log10 IC50 for Cc1cnc(-n2ccnc(C(C)(C)O)c2=O)cc1-n1c(C)cc(OCc2ncc(F)cc2F)c(Cl)c1=O (single isomer, unassigned) [Example 5A] . 0.40

Quick one: Cc1cnc(-n2cccc(C(C)(C)O)c2=O)cc1-n1c(C)cc(OCc2ncc(Cl)cc2F)c(Cl)c1=O (single isomer, unassigned) [Example 4A] 0.70

Quick one: Cc1cnc(-n2cncc(C(C)(C)O)c2=O)cc1-n1c(C)cc(OCc2ncc(F)cc2F)c(Cl)c1=O (single isomer, unassigned) [Example 10A] 0.60

Quick one: [2H]C([2H])(Oc1cc(C)n(-c2cc(-n3cccc(C(C)(C)O)c3=O)ncc2C)c(=O)c1Cl)c1ncc(Cl)cc1F (single isomer, unassigned) [Example 21A] 0.70

Quick one: Cc1ncc(-n2cccc(C(C)(C)O)c2=O)cc1-n1c(C)cc(OCc2ncc(F)cc2F)c(Cl)c1=O (single isomer, unassigned) [Example 16A] 0.90

Quick one: [2H]C([2H])(Oc1cc(C)n(-c2cc(-n3ccnc(C(C)(C)O)c3=O)ncc2C)c(=O)c1Cl)c1ncc(C)cc1F (single isomer, unassigned) [Example 28A] 0.50

Quick one: Cc1cnc(-n2cccc(C3(O)CCC3)c2=O)cc1-n1c(C)cc(OCc2ncc(F)cc2F)c(Cl)c1=O (single isomer, unassigned) [Example 12A] 0.90

Quick one: Cc1cnc(-n2cc(C(C)(C)O)ccc2=O)cc1-n1c(C)cc(OCc2ncc(F)cc2F)c(Cl)c1=O (single isomer, unassigned) [Example 13B] 1.20

Quick one: Cc1cnc(-n2cccc([C@@](C)(O)C3CC3)c2=O)cc1-n1c(C)cc(OCc2ncc(F)cc2F)c(Cl)c1=O (single isomer, unassigned) [Example 14B] 0.50

Quick one: Cc1cnc(-n2ccn(C(C)(C)CO)c2=O)cc1-n1c(C)cc(OCc2ncc(F)cc2F)c(Cl)c1=O (single isomer, unassigned) [Example 27B] -0.10

Quick one: [2H]C([2H])(Oc1cc(C)n(-c2cc(-n3cccc(C(C)(C)O)c3=O)ncc2C)c(=O)c1Cl)c1ncc(F)cc1F (single isomer, unassigned) [Example 18A] 0.50

Quick one: Cc1cnc(-n2cccc(C(C)(C)O)c2=O)cc1-n1c(C)cc(OCc2ncc(F)cc2Cl)c(Cl)c1=O (single isomer, unassigned) [Example 7A] 0.90

Quick one: [2H]C([2H])(Oc1cc(C)n(-c2cc(-n3ccnc(C(C)(C)O)c3=O)ncc2C)c(=O)c1Cl)c1ncc(Cl)cc1F (single isomer, unassigned) [Example 20A] 0.50

Quick one: Cc1cnc(-n2nccc(C(C)(C)O)c2=O)cc1-n1c(C)cc(OCc2ncc(F)cc2F)c(Cl)c1=O (single isomer, unassigned) [Example 9A] 0.30

----------
Known IC50 of a selection of compounds
Study target: p38a/MK2 (Homo sapiens (Human), UniProt P49137+Q16539)
Sequence (Q16539 whole entry): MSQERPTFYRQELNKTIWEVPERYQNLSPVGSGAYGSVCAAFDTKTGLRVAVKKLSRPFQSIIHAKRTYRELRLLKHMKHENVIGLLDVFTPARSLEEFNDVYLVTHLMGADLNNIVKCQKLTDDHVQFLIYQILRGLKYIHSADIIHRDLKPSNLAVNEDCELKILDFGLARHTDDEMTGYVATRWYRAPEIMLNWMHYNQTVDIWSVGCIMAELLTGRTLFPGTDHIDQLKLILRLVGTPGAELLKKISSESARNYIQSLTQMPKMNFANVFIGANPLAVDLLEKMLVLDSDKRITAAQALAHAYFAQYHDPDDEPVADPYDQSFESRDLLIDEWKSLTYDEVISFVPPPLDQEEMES
Sequence (P49137 46-400): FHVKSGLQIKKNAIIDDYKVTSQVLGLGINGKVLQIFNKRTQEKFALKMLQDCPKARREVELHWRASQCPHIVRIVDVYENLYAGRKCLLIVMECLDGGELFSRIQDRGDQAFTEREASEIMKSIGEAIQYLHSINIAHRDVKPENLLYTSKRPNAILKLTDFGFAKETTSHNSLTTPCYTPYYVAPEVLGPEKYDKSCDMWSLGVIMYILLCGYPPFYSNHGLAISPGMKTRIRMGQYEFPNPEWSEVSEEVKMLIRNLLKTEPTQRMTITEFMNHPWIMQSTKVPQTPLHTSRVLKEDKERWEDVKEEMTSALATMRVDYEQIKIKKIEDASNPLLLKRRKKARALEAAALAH
Assay notes: biochemical
Particulars: 10-point 1:3 dilution, top dose 1 μM; 10 μM ATP, 2 h incubation; read-out: p38a/MK2 (1 μM) Enzyme pIC50 (converted)
Answer in nM, number only, no unit symbol.

[[record]]
compound = "Cc1cnc(-n2cccc(C(C)(C)O)c2=O)cc1-n1c(C)cc(OCc2ncc(Cl)cc2F)c(Cl)c1=O (single isomer, unassigned) [Example 4A]"
study_target = "p38a/MK2 (Homo sapiens (Human), UniProt P49137+Q16539)"
recorded_endpoint = "IC50"
number = 2

[[record]]
compound = "Cc1cnc(-n2cccc(C3CCOCC3)c2=O)cc1-n1c(C)cc(OCc2ncc(F)cc2F)c(Cl)c1=O (single isomer, unassigned) [Example 8A]"
study_target = "p38a/MK2 (Homo sapiens (Human), UniProt P49137+Q16539)"
recorded_endpoint = "IC50"
number = 0.794

[[record]]
compound = "Cc1cnc(-n2cccc(C(C)(C)O)c2=O)cc1-n1c(C)nc(OCc2ncc(F)cc2F)c(Cl)c1=O (single isomer, unassigned) [Example 25A]"
study_target = "p38a/MK2 (Homo sapiens (Human), UniProt P49137+Q16539)"
recorded_endpoint = "IC50"
number = 3.98

[[record]]
compound = "Cc1ccc(-n2cccc(C(C)(C)O)c2=O)cc1-n1c(C)cc(OCc2ncc(F)cc2F)c(Cl)c1=O (single isomer, unassigned) [Example 2A]"
study_target = "p38a/MK2 (Homo sapiens (Human), UniProt P49137+Q16539)"
recorded_endpoint = "IC50"
number = 3.98


We now examine a further compound.
I would be grateful if you could share the reported IC50 for Cc1cnc(-n2cccc(C(C)(C)O)c2=O)cc1-n1c(C)cc(OCc2ncc(F)cc2Cl)c(Cl)c1=O (single isomer, unassigned) [Example 7A] . 1

----------
Study target: p38a/MK2 (Homo sapiens (Human), UniProt P49137+Q16539)
Assay notes: biochemical
Particulars: 10-point 1:3 dilution, top dose 1 μM; 10 μM ATP, 2 h incubation; read-out: p38a/MK2 (1 μM) Enzyme pIC50 (converted)
Recorded endpoint: IC50

Example entries begin here.
[[record]]
compound = "Cc1cnc(-n2ccnc(C(C)(C)O)c2=O)cc1-n1c(C)cc(OCc2ncc(F)cc2Cl)c(Cl)c1=O (single isomer, unassigned) [Example 24A]"
result = "> 1000 nM"

[[record]]
compound = "[2H]C([2H])(Oc1cc(C)n(-c2cc(-n3cccc(C(C)(C)O)c3=O)ncc2C)c(=O)c1Cl)c1ncc(F)cc1F (single isomer, unassigned) [Example 18B]"
result = "> 100 nM"

[[record]]
compound = "Cc1cnc(-n2cccc([C@](C)(O)C3CC3)c2=O)cc1-n1c(C)cc(OCc2ncc(F)cc2F)c(Cl)c1=O (single isomer, unassigned) [Example 14C]"
result = "> 1000 nM"

[[record]]
compound = "Cc1cnc(-n2cccc(C(C)(C)O)c2=O)cc1-n1c(C)cc(OCc2ncc(Cl)cc2F)c(Cl)c1=O (single isomer, unassigned) [Example 4B]"
result = "> 1000 nM"

[[record]]
compound = "Cc1cnc(-n2cccc(C(C)C)c2=O)cc1-n1c(C)cc(OCc2ncc(F)cc2F)c(Cl)c1=O (single isomer, unassigned) [Example 17A]"
result = "1.58 nM"


We now examine a further compound.
Report IC50 for Cc1cnc(-n2cccc(C(C)(C)O)c2=O)cc1-n1c(C)cc(OCc2ncc(F)cc2Cl)c(Cl)c1=O (single isomer, unassigned) [Example 7B] tested on p38a/MK2 (Homo sapiens (Human), UniProt P49137+Q16539). > 1000 nM

----------
Known IC50 of a selection of molecules
Study target: p38a/MK2 (Homo sapiens (Human), UniProt P49137+Q16539)
Assay notes: biochemical
Particulars: 10-point 1:3 dilution, top dose 1 μM; 10 μM ATP, 2 h incubation; read-out: p38a/MK2 (1 μM) Enzyme pIC50 (converted)
Excerpt: Expression vectors of the recombinant MK2 and PRAK kinases were constructed by cloning of the codon optimized gene sequences of MK2 (Uniprot ID P49137, amino acid fragment F46-H400), or PRAK (Uniprot ID Q81W41, amino acid fragment M1-Q471) into pGEX-4T1 (GE) for over expression of these kinases with N-terminal GST-tag. […]
Answer in µM, number only, no unit symbol.

Example entries begin here.
[[record]]
molecule = "Cc1cnc(-n2nccc(C(C)(C)O)c2=O)cc1-n1c(C)cc(OCc2ncc(F)cc2F)c(Cl)c1=O (single isomer, unassigned) [Example 9A]"
number = 0.0126

[[record]]
molecule = "Cc1cnc(-n2cncc(C(C)(C)O)c2=O)cc1-n1c(C)cc(OCc2ncc(F)cc2F)c(Cl)c1=O (single isomer, unassigned) [Example 10A]"
number = 0.1


Report IC50 for Cc1cnc(-n2cccc([C@](C)(O)C3CC3)c2=O)cc1-n1c(C)cc(OCc2ncc(F)cc2F)c(Cl)c1=O (single isomer, unassigned) [Example 14A] tested on p38a/MK2 (Homo sapiens (Human), UniProt P49137+Q16539). 0.00158

Quick one: Cc1cnc(-n2ccn(C(C)(C)CO)c2=O)cc1-n1c(C)cc(OCc2ncc(F)cc2F)c(Cl)c1=O (single isomer, unassigned) [Example 27B] 0.0126

Quick one: Cc1cnc(-n2cccc(C(C)(C)O)c2=O)cc1-n1c(C)nc(OCc2ncc(F)cc2F)c(Cl)c1=O (single isomer, unassigned) [Example 25B] 0.631
